// data source = PubChem BioAssay AID449750

test: non-covalent RecA intein splicing inhibitors, dose response, biochemical, cell-free, fluorescence, secondary screen (AID 449750)
Active and inactive are the calls of the source. How the calls were made is not given here.
endpoint-name: AC50

| molecule | AC50 |
| --- | --- |
| C=CCn1c(NC(=O)c2ccc(Br)o2)c(S(=O)(=O)c2ccccc2)c2nc3ccccc3nc21 | > 38 µM (inactive) |

Per the record, "O=[N+]([O-])c1c(Nc2ccccn2)cc(Cl)c2nonc12" has AC50 of 1.76 µM

Recorded AC50 (molecule "O=C(O)c1ccc(NC2=C(Cl)C(=O)c3ccccc3C2=O)cc1" ): 3.91 µM

Recorded result, "CC1=NNC(=O)/C1=C\c1cn(-c2ccccc2)nc1-c1ccccc1" , AC50: 8.49 µM

###

assay: non-covalent RecA intein splicing inhibitors, dose response, biochemical, cell-free, fluorescence, secondary screen (AID 449750)
The source made the active and inactive calls. No rule for the calls is given here.
# key: entry, value: AC50

Some compounds with known AC50 results, for comparison:
| compound | AC50 |
| --- | --- |
| CCOC(=O)CSc1n[nH]c(NC(=O)c2cccc(C(F)(F)F)c2)n1 | > 38 µM (inactive) |
| CC(C)(C)C1CCc2sc(C(=O)NNC(=O)CCl)cc2C1 (stereo unspecified) | 1.94 µM |
| Cc1nn(-c2cccc(Cl)c2)c2c1C(c1cccnc1)C(C#N)=C(N)O2 (stereo unspecified) | 34.6 µM |
| CCCCOC(=O)CNc1nnc(SCC(=O)OCC)[nH]c1=O | > 38 µM (inactive) |
| CCc1oc2ccccc2c1C(=O)c1cc(Br)c(O)c(Br)c1 | 9.46 µM |

# next compound below
Measured AC50, "COc1nc(NC(C)C)nc(N(C#N)CN2C(=O)c3ccccc3S2(=O)=O)n1" : > 38 µM (inactive)

###

test: non-covalent RecA intein splicing inhibitors, dose response, biochemical, cell-free, fluorescence, secondary screen (AID 449750)
Calls of active or inactive are those of the source. No rule for the calls is given here.
A correct response names exactly one class from yes (1) for active, no (0) for inactive

Here's what some known entries look like.
| compound | answer-label |
| --- | --- |
| O=C(NC(=C(Cl)Cl)S(=O)(=O)c1ccc(Cl)cc1)c1ccccc1 | yes (1) |
| Cn1cnc([N+](=O)[O-])c1S(=O)(=O)c1cccc(Cl)c1 | yes (1) |
| CC(=O)n1cc(N(C(=O)CCl)c2ccccc2)c2ccccc21 | yes (1) |
| COC(=O)CCSc1cc(NCCOC(C)=O)c([N+](=O)[O-])c2nonc12 | no (0) |
| C[n+]1c2ccccc2nc2ccc(NCCO)cc21 | yes (1) |
| CCn1nc(C)c(C2C(C#N)=C(N)Oc3n[nH]c(C)c32)c1C (stereo unspecified) | no (0) |
| [O-]C1=N/[N+](=C/c2ccccc2)CC1 | no (0) |
| Cc1cc(O)c(C(C)C)cc1N=Cc1ccccc1O | yes (1) |
| COc1cc(C(=O)NCC(=O)N/N=C/c2cccc(OC(=O)c3ccco3)c2)cc(OC)c1OC | no (0) |
| C/C(CC(=O)Nc1cccnc1)=N\NC(=O)c1ccc([N+](=O)[O-])c(Cl)c1 | no (0) |

Next compound, please.
Task: GET /call?item= "COc1cc(/C=C2\C(=O)N(CCC#N)N=C2C)ccc1OCC(=O)Nc1ccccc1" returns the recorded outcome of this test.
Output: yes (1)

###

assay: non-covalent RecA intein splicing inhibitors, dose response, biochemical, cell-free, fluorescence, secondary screen (AID 449750)
Calls of active or inactive are those of the source. How the calls were made is not given here.
Allowed answers: true (1) (active), false (0) (inactive)

| molecule | answer-label |
| --- | --- |
| COc1ccc(/C=C2/C(=O)N(c3ccccc3)N=C2C)cc1OC | true (1) |
| CCCCCCCCCCOC(=O)Cn1c(COc2ccccc2OC)[n+](C)c2ccccc21 | true (1) |
| COc1cccc(CN2CCN(Cc3ccc(C#CC(C)(C)O)s3)CC2CCO)c1 (centres undefined) | false (0) |
| CCCCCCOC(=O)c1ccc(OC(=O)c2cccnc2)cc1 | false (0) |
| Cc1c(C#N)c(NC(=O)CCl)n(Cc2cccs2)c1C | true (1) |
| CC(=O)Oc1c(Br)cc(N(C(C)=O)S(=O)(=O)c2ccccc2)c2ccccc12 | true (1) |

Task: # lookup: test call for "CC(C)c1ccc(/C=N/NC(=O)c2nnn(-c3nonc3N)c2CSC2=NCCS2)cc1"
Output: true (1)

Task: Recorded call for "CC(=O)c1cccc2c(O)c(C3=Nc4ccccc4C3=O)[nH]c12" ?
Output: true (1)

Task: For this molecule, state the assay outcome: "COc1ccccc1N1C(=O)Cc2ccccc2C1=O"
Output: false (0)

Task: Assay result, entry "O=C1C(Br)=Cc2cccc3cccc1c23" — outcome?
Output: false (0)

Task: For O=C(NC1C(=O)NNC1c1ccccc1)c1ccccc1 (centres undefined) , what call appears in the results of this test?
Output: false (0)

Task: What was the test verdict on CC(=O)NC1C(=O)N(CCN2CCOCC2)c2ccc(C)cc21 (centres undefined) ?
Output: true (1)

Task: What classification did "O=C(NCc1cccnc1)/C(=C/c1ccc(-c2ccc(Cl)cc2)o1)S(=O)(=O)c1ccccc1" end up with in this test?
Output: true (1)

Task: Please share the test call associated with "CC1(C)Cc2ccccc2C2=NNC(=O)C2=N1" .
Output: true (1)

###

test: non-covalent RecA intein splicing inhibitors, dose response, biochemical, cell-free, fluorescence, secondary screen (AID 449750)
Calls of active or inactive are those of the source. The rule behind the calls is not given here.
Tick one outcome: true (1) for active, false (0) for inactive

| compound | answer-label |
| --- | --- |
| COc1cc(NC(C)CCCN)c2ncccc2c1Oc1ccccc1 (stereo unspecified) | true (1) |
| CN(C)/C=C/C(=O)c1ccc2noc(-c3ccc(F)cc3)c2c1 | false (0) |
| N#CC1=C(N)N(c2ccccc2)C(c2cccc([N+](=O)[O-])c2)C1(C#N)C#N (stereo unspecified) | false (0) |
| COc1cccc(/C=C2\SC(=S)N(CCCC(=O)N(CCO)c3ccccc3)C2=O)c1 | false (0) |
| CC[C@@H](CO)NC(=O)[C@@H]1C=C2c3cccc4c3c(cn4C)C[C@H]2N(C)C1 | false (0) |
| O=C1C=C(NCCN2CCOCC2)C(=O)c2cnccc21 | true (1) |
| CCOC(=O)c1c(CSC(=N)N)n(-c2ccc(C)cc2)c2cc(Br)c(OC(C)=O)cc12 | true (1) |
| COc1ccccc1CN1CCSCC1 | false (0) |
| O=[N+]([O-])c1cc([N+](=O)[O-])c2cc3ccccc3nc2c1 | true (1) |
| COC(=O)/C(=C1/Oc2cc(C)oc(=O)c2S1)C(F)(F)F | false (0) |

We next turn to a different compound, shown below.
Task: Tell me the assay call for "Cc1ccccc1Nc1cc2ccccc2c(=O)[nH]1" please.
Output: true (1)

###

assay: non-covalent RecA intein splicing inhibitors, dose response, biochemical, cell-free, fluorescence, secondary screen (AID 449750)
Calls of active or inactive are those of the source. No rule for the calls is given here.
Tick one outcome: yes = active, no = inactive

Below are worked cases with known answers.
| compound | answer-label |
| --- | --- |
| O=c1c2c([nH]n1-c1ccccc1)CCSC2 | yes |
| COC(=O)c1nc(NC(=O)c2ccc(C(C)(C)C)cc2)n[nH]1 | no |
| COc1ccc(O)c(C(c2c(C)[nH][nH]c2=O)c2c(C)[nH][nH]c2=O)c1 | yes |
| Cc1cccc(CS(=O)(=O)c2ncc(Cl)c(C(=O)Nc3nnc(C(C)C)s3)n2)c1 | yes |
| COc1ccc(CN2CCNC(=O)C2CC(=O)N(C)Cc2ccncn2)c(OC)c1 (configuration not stated) | no |
| O=C1C(=O)c2ccccc2-c2ccccc21 | yes |
| C/C(=N\NC(=O)Cc1cc(=O)[nH][nH]1)c1cccc([N+](=O)[O-])c1 | yes |
| N#CC1(NC(=O)COC(=O)c2cc(O)c3ccccc3c2O)CCCCC1 | yes |

Task: What did the test return for CCCc1[nH][nH]c(=O)c1C(c1cccc(Cl)c1)C(C#N)C#N (configuration not stated) ?
Output: yes

Task: Assay result, entry COc1ccc(N(C(=O)CCl)C(C(=O)NC2CCCCC2)c2cccnc2)cc1 (configuration not stated) — outcome?
Output: yes

Task: State the result this test recorded for "O=C(N/N=C1\C/C(=N\NC(=O)c2ccncc2)c2ccccc21)c1ccncc1" .
Output: yes

Task: GET /call?item= CC1=NNC(=O)C1Cc1ccccc1 (configuration not stated) returns the recorded outcome of this test.
Output: no

Task: Could you kindly confirm the outcome this assay logged for "C/C(CC(=O)NCc1ccco1)=N\NC(=O)c1ccc([N+](=O)[O-])cc1Cl" ?
Output: no

Task: Status in this test for COc1ccc(N(C(=O)CCl)C(C(=O)NCCc2ccccc2)c2cccs2)cc1 (configuration not stated) ?
Output: yes

Task: Recorded test outcome, item CCOc1cc(C2C(C#N)=C(N)Oc3n[nH]c(CC)c32)ccc1OCCN1CCOCC1 (configuration not stated)
Output: no

Task: For O=C1CCCC2=C1C1(O)C(=O)c3ccccc3C1(O)O2 (configuration not stated) , which call appears in the assay record?
Output: yes

Task: What is the recorded call for this compound in the test? "Cn1c(=O)[nH]c(=O)c2c1nc([N+](=O)[O-])n2Cc1ccccc1"
Output: no
